This listing pairs compounds with measured AUC(0-inf).
experiment: Pharmacokinetic study of nanoparticle suspension NS-I-4 in ICR mice; assay type: in vivo; settings: iv; analyte in mouse plasma after NS-I-4 intravenously 30 mg/kg, ICR mice
Measure: AUC(0-inf) (µg·h/mL)

CC(=O)c1cc2c(o1)C(=O)c1ccccc1C2=O [2-acetyl-naphtho[2,3-b]furan-4,9-dione] ... 8.53
CCCCCCCC(=O)Oc1c2ccccc2c(OC(=O)CCCCCCC)c2oc(C(C)=O)cc12 ... 255

###

assay: Pharmacokinetic study of nanoparticle suspension NS-I-4 in ICR mice; assay type: in vivo; conditions: iv; analyte in mouse plasma after NS-I-4 intravenously 30 mg/kg, ICR mice; read-out: Tmax
This listing pairs compounds with measured Tmax.
Measure: Tmax (min)

CCCCCCCC(=O)Oc1c2ccccc2c(OC(=O)CCCCCCC)c2oc(C(C)=O)cc12 ... 10
CC(=O)c1cc2c(o1)C(=O)c1ccccc1C2=O [2-acetyl-naphtho[2,3-b]furan-4,9-dione] ... 10

Entry source: patent US20150164794A1
